# TEST_DETAILS: Effect on Wnt signaling pathway in human SW480 cells harbouring TCF/LEF luciferase reporter gene and SP5-Luc reporter gene incubated for 36 to 48 hrs by luminescence assay
# Assay type: cell-based
Here the recorded EC50 is given for each entry.
Give a bare numeral; the unit nM is implied.

Example compounds with recorded EC50:
CC(C)NC(=O)c1n[nH]c2ccc(-c3cncc(NC4CCNCC4)n3)cc12 = 2400
CC(C)CC(=O)Nc1cncc(-c2ccc3[nH]nc(-c4nc5c(-c6cccnc6)cncc5[nH]4)c3c2)c1 = 12

Now for a further compound.
Request: # return recorded EC50 for entry O=C1CCc2cccc(c2)-c2cncc3[nH]c(nc23)-c2n[nH]c3ccc(cc23)-c2cncc(c2)N1
Response: 51.8
